Assay: Human HepG2 cell viability assay in 384 well format
Assay type: toxicity, cell-based
Parameters: dose 125 nL, time 70.5 hour; concentration not given beside the values
Conditions: HepG2 cells, read-out: Inhibition
Measure Name: cytotoxicity at 70.5 h (%)

INSERT INTO results (molecule, measure_name, unit_info, reported_measurement) VALUES
  ('Cc1cc(C)nc(C2CCCN2C(=O)c2cnco2)n1 (configuration not stated)', 'cytotoxicity at 70.5 h', '%', 33.6),
  ('Cc1nonc1NC(=O)C1SCCc2ccccc21 (configuration not stated)', 'cytotoxicity at 70.5 h', '%', 2.97),
  ('COc1ccccc1N1CCC(CNS(=O)(=O)c2cccc(C#N)c2)C1 (configuration not stated)', 'cytotoxicity at 70.5 h', '%', 22.7),
  ('CCCOc1ccc2c(c1)OCC(C(=O)NC(C)Cn1ccnc1)=C2 (configuration not stated)', 'cytotoxicity at 70.5 h', '%', -6.31),
  ('Cc1ccc(C(=O)Nc2cn[nH]c2)cn1', 'cytotoxicity at 70.5 h', '%', -1.81),
  ('O=C1COC2(CCN(Cc3cccs3)CC2)CN1c1cccnc1', 'cytotoxicity at 70.5 h', '%', 5.94),
  ('CC(C)OCCCN(Cc1ccncc1)Cc1cc(F)ccc1F', 'cytotoxicity at 70.5 h', '%', -4.35),
  ('Cn1ccnc1C(=O)N1CCC2(CCN2CC2CC2)C1 (configuration not stated)', 'cytotoxicity at 70.5 h', '%', 9.69),
  ('N#Cc1ccc(N2CCN(c3ncccn3)CC2)c(C(F)(F)F)c1', 'cytotoxicity at 70.5 h', '%', 8.58),
  ('CCCc1nc(CN(CC)C(=O)c2onc3ccccc23)no1', 'cytotoxicity at 70.5 h', '%', 17),
  ('Cc1occc1C(=O)N1CCCN(Cc2ncc(Cl)n2C)CC1', 'cytotoxicity at 70.5 h', '%', -7.84),
  ('COc1cc(CNCC(O)c2ccccc2F)cc2c1OCO2 (configuration not stated)', 'cytotoxicity at 70.5 h', '%', -14);

###

Test: Human HepG2 cell viability assay in 384 well format
Assay type: toxicity, cell-based
Design: dose 125 nL, time 70.5 hour; concentration not given beside the values
Details: HepG2 cells, read-out: Inhibition
Measure Name: cytotoxicity at 70.5 h

INSERT INTO results (molecule, reported_measurement) VALUES
  ('COCC(=O)NC(c1ccc(Cl)cc1)c1noc(C)n1 (stereo unspecified)', '-2.49%'),
  ('COc1ccccc1CCNC(=O)CN1CCCC1c1noc(C)n1 (stereo unspecified)', '-3.07%'),
  ('Cc1cnc(CN2CCOC(Cn3nc(C)nc3C)C2)cn1 (stereo unspecified)', '18.6%'),
  ('CCc1n[nH]c(C2CN(C(=O)CCc3cscn3)CCO2)n1 (stereo unspecified)', '1.24%'),
  ('CCS(=O)(=O)NCCCNC1CSCCc2ccccc21 (stereo unspecified)', '-7.41%'),
  ('CN1CCCC[C@@H]2[C@H]1[C@@H](c1ccccc1)CCN2C(=O)c1ccccn1', '-9.11%');

###

Test: Human HepG2 cell viability assay in 384 well format
Format: toxicity, cell-based
Set-up: dose 125 nL, time 70.5 hour; concentration not given beside the values
Settings: HepG2 cells, read-out: Inhibition
Measure Name: cytotoxicity at 70.5 h (%)

INSERT INTO assay_data (compound, unit_info, reported_measurement) VALUES
  ('Cc1cnn(CC2CCCN2C(=O)c2n[nH]c3ccccc23)c1 (stereo unspecified)', '%', -6.9),
  ('CCOCc1nc(N2CCCC2)sc1C(=O)NCc1ccco1', '%', -5.28),
  ('CCN(c1ccc(C(=O)N2CCCC2)cc1)S(=O)(=O)CC', '%', -10.8),
  ('CC(=O)NC(Cc1c[nH]c2cc(F)ccc12)C(=O)Nc1nonc1C (stereo unspecified)', '%', 22),
  ('COCC1CC2(CCN(C(=O)C3CCSCC3)CC2)CO1 (stereo unspecified)', '%', 8.61),
  ('O=C(NCc1ccc2c(c1)CCCO2)C1CNCCO1 (stereo unspecified)', '%', 48.5);

###

Experiment: Human HepG2 cell viability assay in 384 well format
Type: toxicity, cell-based
Parameters: dose 125 nL, time 70.5 hour; concentration not given beside the values
Details: HepG2 cells, read-out: Inhibition
Measure Name: cytotoxicity at 70.5 h (%)

INSERT INTO results (compound, unit_info, reported_measurement) VALUES
  ('COCc1noc(CN2CCCCC2CCc2cccs2)n1 (configuration not stated)', '%', -14.8),
  ('CC(C)(CNC1CCCN(Cc2ccccn2)C1)CN1CCOCC1 (configuration not stated)', '%', -12.6),
  ('COC1CCN(C(=O)Cn2ncc(N3CCCCC3)cc2=O)C1 (configuration not stated)', '%', -2.54),
  ('O=C(CCn1c(=O)oc2ccccc21)NCC(O)c1ccc(Cl)cc1 (configuration not stated)', '%', 9.7),
  ('Cc1cccc(OCCC(=O)N2CCCN(CC(N)=O)CC2)c1C', '%', -12),
  ('CCC(CO)N(Cc1cccnc1)C(=O)c1ccoc1C (configuration not stated)', '%', 0.679),
  ('COc1cc(C(=O)N(Cc2cccs2)C2CC2)cc2c1OCCO2', '%', 16),
  ('CNC(=O)c1cccc(CC2COCCN(Cc3ccsc3)C2)n1 (configuration not stated)', '%', -6.49),
  ('O=C(C1CCOCC1)N1CCc2ncnc(-c3ccc(F)cc3)c2CC1', '%', -11.3),
  ('COc1cccc(NC(=O)N(CCO)Cc2ccsc2)c1', '%', -3.88),
  ('Cc1ccc2oc(=O)n(CC(=O)N3CCC4(CC3)CN(C)C(=O)O4)c2c1', '%', 13.2),
  ('CN1C(=O)CCC12CCCN(Cc1nccs1)C2 (configuration not stated)', '%', 23.1);

###

Assay: Human HepG2 cell viability assay in 384 well format
Format: toxicity, cell-based
Parameters: dose 125 nL, time 70.5 hour; concentration not given beside the values
Settings: HepG2 cells, read-out: Inhibition
The entries below come with measured cytotoxicity at 70.5 h values attached.
Measure Name: cytotoxicity at 70.5 h (%)

INSERT INTO assay_data (compound, measure_name, reported_measurement) VALUES
  ('CC(C)CCn1[nH]c(CNc2ccc(F)cc2)nc1=O', 'cytotoxicity at 70.5 h', -10.3),
  ('Cc1cccc(N2CC[C@H]3[C@H]2CCN3C(=O)c2cnn(C)c2)n1', 'cytotoxicity at 70.5 h', -8.26),
  ('CN1C[C@@H](C(=O)N2CCCOCC2)[C@@]2(CCc3ccccc3C(=O)N2)C1', 'cytotoxicity at 70.5 h', -1.32),
  ('Cc1ccc(N2CCC3(CCN(Cc4nccs4)CC3)CC2)nn1', 'cytotoxicity at 70.5 h', -7.07),
  ('CN(C)C(=O)N1CCn2nc(CNC(=O)CCC(F)(F)F)cc2C1', 'cytotoxicity at 70.5 h', -3.05),
  ('CCC1CCCCN1C(=O)Cn1nc(-c2ccc(C)o2)cc(N)c1=O (stereo unspecified)', 'cytotoxicity at 70.5 h', -15.1);

###

The entries below come with measured cytotoxicity at 70.5 h values attached.
Assay: Human HepG2 cell viability assay in 384 well format
Format: toxicity, cell-based
Set-up: dose 125 nL, time 70.5 hour; concentration not given beside the values
Settings: HepG2 cells, read-out: Inhibition
Measure Name: cytotoxicity at 70.5 h (%)

INSERT INTO results (compound, measure_name, reported_measurement) VALUES
  ('CCC1(CO)CCN(C(=O)c2cc(COc3ccccc3F)[nH]n2)CC1', 'cytotoxicity at 70.5 h', 15.1),
  ('COCC(C)N(C)C(=O)c1ccc2nncn2c1 (stereo unspecified)', 'cytotoxicity at 70.5 h', -2.4),
  ('OCC(O)CSCc1cn(-c2ccc(Cl)c(Cl)c2)nn1 (stereo unspecified)', 'cytotoxicity at 70.5 h', -5.28),
  ('CC(=O)NC1CCCN(C(=O)NCc2cc[nH]n2)C1 (stereo unspecified)', 'cytotoxicity at 70.5 h', -1.94),
  ('CC1CN(Cc2cccc(CN)c2)CCO1 (stereo unspecified)', 'cytotoxicity at 70.5 h', -9.2),
  ('Cc1ccc(-c2nc(CN3CCCC(Cn4cncn4)C3)cs2)o1 (stereo unspecified)', 'cytotoxicity at 70.5 h', 6.82);

###

Assay: Human HepG2 cell viability assay in 384 well format
Format: toxicity, cell-based
Parameters: dose 125 nL, time 70.5 hour; concentration not given beside the values
Conditions: HepG2 cells, read-out: Inhibition
The entries below come with measured cytotoxicity at 70.5 h values attached.
Measure Name: cytotoxicity at 70.5 h (%)

INSERT INTO results (compound, measure_name, unit_info, reported_measurement) VALUES
  ('NC(=O)c1c[nH]nc1NC(=O)c1ccc(Cl)cc1', 'cytotoxicity at 70.5 h', '%', -3.88),
  ('O=C(c1ccn(-c2cccc(F)c2)n1)N1CCN(CCO)CC1', 'cytotoxicity at 70.5 h', '%', -5.78),
  ('CC(=O)N(Cc1ncc(C)o1)C1CCN(Cc2ccccc2F)C1 (stereo unspecified)', 'cytotoxicity at 70.5 h', '%', -2.68),
  ('Cc1nn(C)c(C)c1CN1CCN(CC2(O)CCCN(C)C2)CC1 (stereo unspecified)', 'cytotoxicity at 70.5 h', '%', -10.5),
  ('CCN1C(=O)C[C@@H]2[C@@H]1CCN2S(=O)(=O)c1ccccc1', 'cytotoxicity at 70.5 h', '%', -12.3),
  ('CN(C)CC1(O)CCCN(Cc2ccccc2OCC(=O)N(C)C)C1 (stereo unspecified)', 'cytotoxicity at 70.5 h', '%', 2.4),
  ('Cc1cc(CNCc2c(C)nn(C)c2N2CCOCC2)no1', 'cytotoxicity at 70.5 h', '%', -4.07),
  ('O=C(O)c1ccn(-c2ccccc2NS(=O)(=O)c2ccccc2)n1', 'cytotoxicity at 70.5 h', '%', -0.995),
  ('O=C(c1ccc(F)c(F)c1)N1CCCC1CN1CCCC1 (stereo unspecified)', 'cytotoxicity at 70.5 h', '%', -1.66),
  ('CC(C)NC(=O)N1CCN(CC2CC2)CC2(CNC(=O)C2)C1 (stereo unspecified)', 'cytotoxicity at 70.5 h', '%', -17.7),
  ('COc1c(C2CCCN2CC(=O)N(C)Cc2ccco2)c(C)nn1C (stereo unspecified)', 'cytotoxicity at 70.5 h', '%', -5.02);

These measurements were taken from ChEMBL document CHEMBL3507680.
